Each entry below carries its recorded Ki.
target: human GlyT1c transporter (Homo sapiens, UniProt P48067); construct: expressed in transfected cells; host or cells: CHO cells (recombinant; line hGlyT1c_5_CHO is named for the uptake assay); assay: Radioligand binding assay using recombinant CHO cell membranes expressing human GlyT1; settings: radioligand binding to human GlyT1c transporter-expressing membranes
Sequence (P48067 whole entry): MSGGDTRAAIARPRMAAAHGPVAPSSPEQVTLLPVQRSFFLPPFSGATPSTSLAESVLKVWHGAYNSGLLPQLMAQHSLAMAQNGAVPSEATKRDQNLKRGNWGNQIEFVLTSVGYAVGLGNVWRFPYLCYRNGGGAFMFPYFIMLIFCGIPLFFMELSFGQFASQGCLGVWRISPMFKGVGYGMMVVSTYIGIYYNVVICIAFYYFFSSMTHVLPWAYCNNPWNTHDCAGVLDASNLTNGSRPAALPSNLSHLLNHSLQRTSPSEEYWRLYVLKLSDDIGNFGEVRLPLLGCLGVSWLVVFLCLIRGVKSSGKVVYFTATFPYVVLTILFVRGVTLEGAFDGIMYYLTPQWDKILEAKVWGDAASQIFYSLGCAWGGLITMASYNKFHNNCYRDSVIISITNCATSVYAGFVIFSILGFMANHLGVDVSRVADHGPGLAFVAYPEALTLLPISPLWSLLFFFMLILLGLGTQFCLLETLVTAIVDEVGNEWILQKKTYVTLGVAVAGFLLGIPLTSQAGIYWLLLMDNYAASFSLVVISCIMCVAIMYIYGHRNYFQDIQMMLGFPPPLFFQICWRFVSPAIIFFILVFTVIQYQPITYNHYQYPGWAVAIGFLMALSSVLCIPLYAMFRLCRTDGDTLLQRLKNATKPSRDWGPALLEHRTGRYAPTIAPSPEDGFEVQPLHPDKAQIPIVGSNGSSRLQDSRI

Cn1cnc(S(=O)(=O)N2CC(NCc3ccc(C(F)(F)F)cc3)C(O)(c3ccccc3)C2)c1 (centres unmarked) ... ≤ 10 µM
Cn1cnc(S(=O)(=O)N2C[C@@H](Nc3ccccc3F)[C@H](c3ccccc3)C2)c1 (relative stereo) ... ≤ 10 µM
CC(C)OCCNC(=O)[C@@H]1CN(S(=O)(=O)c2cn(C)cn2)C[C@H]1c1ccc(F)cc1 ... ≤ 10 µM

**Query** Quick check: Ki on human GlyT1c transporter (Homo sapiens, UniProt P48067), item Cn1cnc(S(=O)(=O)N2CC(Cc3ccccc3Br)C(c3ccccc3Br)C2)c1 (centres unmarked) ?
**Result** ≤ 1 µM

**Query** Request body: readout Ki, system human GlyT1c transporter (Homo sapiens, UniProt P48067), query Cn1cnc(S(=O)(=O)N2C[C@H](Nc3cc(-c4cccnc4)ccn3)[C@@H](c3ccc(F)cc3)C2)c1 . Return the value.
**Result** ≤ 0.1 µM

**Query** Form entry - test system: human GlyT1c transporter (Homo sapiens, UniProt P48067); read-out: Ki; compound: Cn1cnc(S(=O)(=O)N2C[C@H](NCC3(C)CCOCC3)[C@@H](c3ccccc3)C2)c1
**Result** > 10 µM

**Query** Request body: readout Ki, system human GlyT1c transporter (Homo sapiens, UniProt P48067), query Cc1ccc(N[C@@H]2CN(S(=O)(=O)c3cn(C)cn3)C[C@H]2c2ccc(F)cc2)cc1 (relative stereo) . Return the value.
**Result** ≤ 1 µM

**Query** Provide value of Ki for this record tested with human GlyT1c transporter (Homo sapiens, UniProt P48067): Cn1cnc(S(=O)(=O)N2C[C@@H](NC(=O)c3ccc(F)cc3)[C@H](c3ccccc3)C2)c1 (relative stereo)
**Result** ≤ 10 µM

**Query** Request - read-out Ki | tested on human GlyT1c transporter (Homo sapiens, UniProt P48067) | compound Cn1cnc(S(=O)(=O)N2C[C@@H](Nc3ccnc(C(F)(F)F)c3)[C@H](c3ccccc3Cl)C2)c1 (relative stereo)
**Result** ≤ 1 µM

**Query** Provide the documented Ki with human GlyT1c transporter (Homo sapiens, UniProt P48067) as the system for CC(C)(C)OC(=O)N[C@@H]1CN(S(=O)(=O)c2ccccc2C#N)C[C@H]1c1ccc(F)cc1 (relative stereo)
**Result** ≤ 10 µM

**Query** Request - read-out Ki | tested on human GlyT1c transporter (Homo sapiens, UniProt P48067) | compound Cn1cnc(S(=O)(=O)N2C[C@H](NC(=O)CC3CC3)[C@@H](c3ccccc3)C2)c1
**Result** ≥ 10 µM

**Query** Missing value: Ki, human GlyT1c transporter (Homo sapiens, UniProt P48067), entry Cn1cnc(S(=O)(=O)N2C[C@H](Nc3ccc(C(F)(F)F)c(C(F)(F)F)c3)[C@@H](c3ccccc3)C2)c1 . Fill in?
**Result** ≤ 1 µM

**Query** Lab note: need Ki for Cc1ccc(N[C@H]2CN(S(=O)(=O)c3cn(C)cn3)C[C@@H]2c2ccc(F)cc2)cc1C(F)(F)F on human GlyT1c transporter (Homo sapiens, UniProt P48067), anyone have it?
**Result** ≤ 1 µM

**Query** Please tell me: Ki of Cn1cnc(S(=O)(=O)N2C[C@@H](NC(=O)c3cccc(C(F)(F)F)c3Cl)[C@H](c3ccccc3)C2)c1Cl (relative stereo) , system human GlyT1c transporter (Homo sapiens, UniProt P48067)?
**Result** ≤ 10 µM
